# testDetails: Acute 8-day toxicity, single i.p. application to male mice (LD50)
# experimentalContext: in vivo, ip, mouse i.p., 8 days
# Protocol: The acute 8-day toxicity is determined after a single application i.p. to male mice (body weight 18 to 22 g). The mortality is noted for 8 days. The results are calculated as LD50 values, i.e. the dose which kills 50% of the animals.
# reported LD50 at 192 h; entries follow
readoutLabel: LD50 at 192 h (mg/kg)

CC(=O)c1ccc(-n2c(C)cc(=O)n2CCCN2CCN(c3cc(C)ccn3)CC2)cc1 170
Cc1cc(=O)n(CCCN2CCN(c3ccccc3)CC2)n1-c1ccccc1 108
Cc1ccnc(N2CCN(CCCn3c(=O)cc(C)n3-c3ccc([N+](=O)[O-])cc3)CC2)c1 90
